Values compiled from patent US12522593B2.

Target: CTSC in U937 cells (Homo sapiens (Human), UniProt P53634)
Sequence (P53634 25-463): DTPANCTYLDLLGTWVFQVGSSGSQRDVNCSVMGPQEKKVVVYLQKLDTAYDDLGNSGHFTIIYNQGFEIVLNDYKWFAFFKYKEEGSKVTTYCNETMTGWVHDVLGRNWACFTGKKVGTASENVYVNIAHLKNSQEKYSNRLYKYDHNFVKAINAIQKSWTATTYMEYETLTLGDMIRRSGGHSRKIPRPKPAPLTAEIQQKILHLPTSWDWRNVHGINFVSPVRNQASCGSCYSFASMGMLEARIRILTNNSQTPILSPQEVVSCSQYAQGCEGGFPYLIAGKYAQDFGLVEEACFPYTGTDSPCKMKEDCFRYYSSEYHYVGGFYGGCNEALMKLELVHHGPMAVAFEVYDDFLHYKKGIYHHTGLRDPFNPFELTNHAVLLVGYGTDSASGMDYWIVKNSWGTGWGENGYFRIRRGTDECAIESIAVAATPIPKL
Experiment: Intracellular CTSC inhibition assay (in vitro), LLOMe-induced cell death in U937 cells
Format: cell-based
Conditions: 3 hours culture, CellTiter-Glo
RESULT_TYPE: IC50 (nM)

INSERT INTO measurements (compound, cmp, obs_value) VALUES
  ('CC1(C)CN[C@H](C(=O)N2CCC(c3noc(C4CC(F)(F)C4)n3)(C(F)(F)F)CC2)C[C@H]1O', '=', 0.86),
  ('CC(C)C1(c2nc(C3CCC(F)(F)CC3)no2)CN(C(=O)[C@@H]2CC[C@@]3(CCO3)CN2)C1', '=', 4.78),
  ('CC(=O)N(C)C1(c2nc(C3CC(F)(F)C3)no2)CCN(C(=O)[C@@H]2C[C@@H](O)C3(CCC3)CN2)CC1', '>', 333),
  ('O=C([C@@H]1C[C@@H](O)C2(CCC2)CN1)N1CCC(c2cn(-c3ccc(F)cc3)nn2)CC1', '=', 3.8),
  ('CC(C)C1(C(=O)NC2CCC(F)(F)CC2)CN(C(=O)[C@@H]2C[C@@H](O)C3(CCC3)CN2)C1', '=', 791),
  ('CC(C)C1(c2noc(C3CCC(F)(F)CC3)n2)CCN(C(=O)[C@@H]2C[C@H](F)CN2)CC1', '>', 1000),
  ('O=C([C@@H]1C[C@@H](O)C2(CCC2)CN1)N1CCC(n2nnc(-c3ccc(F)cn3)n2)CC1', '=', 3.97),
  ('Cc1ccc(C2(C(=O)NCC3CCC(F)(F)CC3)CCN(C(=O)[C@@H]3CC[C@@]4(CCO4)CN3)CC2)cc1', '=', 1.92),
  ('CC1(C)CN[C@H](C(=O)N2CCC(c3noc(C4CCC(F)(F)CC4)n3)(C(F)(F)F)CC2)C[C@H]1O', '=', 0.71),
  ('CC(C)C1(c2noc(C3CCC(F)(F)CC3)n2)CN(C(=O)[C@@H]2C[C@@H](O)C3(CCC3)CN2)C1', '=', 1.06),
  ('O=C([C@@H]1C[C@@H](O)C2(CCC2)CN1)N1CCC(c2noc(C3CC(F)(F)C3)n2)(c2cccs2)CC1', '=', 1.1),
  ('O=C([C@@H]1CC[C@@]2(CCO2)CN1)N1CCC(C(=O)NCC2CCC(F)(F)CC2)(C(F)(F)F)CC1', '=', 4.12),
  ('O=C([C@@H]1C[C@@H](O)C2(CCC2)CN1)N1CCC(C(=O)N2CCC(C(F)(F)F)C2)(C(F)(F)F)CC1 (stereo partly shown)', '=', 6.54),
  ('Cc1ccc(C2(c3nc(C4CC(F)(F)C4)no3)CCN(C(=O)[C@@H]3C[C@@H](O)C4(CCC4)CN3)CC2)cc1', '=', 0.23),
  ('CC(C)C1(c2noc(C3CCC(F)(F)CC3)n2)CCN(C(=O)C2CCC3(CCC3)CN2)CC1 (stereo not shown)', '=', 2.28),
  ('CC(C)C1(C(=O)N(C)CC2CCC(F)(F)CC2)CN(C(=O)[C@@H]2C[C@@H](O)C3(CCC3)CN2)C1', '=', 21.4),
  ('CC(C)C1(c2nc(C3CC(F)(F)C3)no2)CCN(C(=O)[C@@H]2C[C@@H](O)C(C)(C)CN2)CC1', '=', 1.46),
  ('O=C([C@@H]1CC[C@@]2(CCO2)CN1)N1CCC(c2ccc(F)cc2)(c2nnc(C3CCC(F)(F)CC3)o2)CC1', '=', 4.02),
  ('CC1(C)CN[C@H](C(=O)N2CCC(c3nnn(-c4ccc(F)cc4)n3)CC2)C[C@H]1O', '=', 0.54),
  ('CC(C)C1(C(=O)NCC2CCC(F)(F)CC2)CN(C(=O)[C@@H]2C[C@@H](O)C3(CCC3)CN2)C1', '=', 227),
  ('CC(NC(=O)C1(C(F)(F)F)CCN(C(=O)[C@@H]2CC[C@@]3(CCO3)CN2)CC1)C1CCC(F)(F)CC1 (stereo partly shown)', '=', 7.5),
  ('O=C([C@@H]1C[C@@H](O)C2(CCC2)CN1)N1CCC(c2nc(C3CCC(F)(F)CC3)no2)(C(F)(F)F)CC1', '=', 0.19),
  ('CC(C)C1(c2noc(C3CC(F)(F)C3)n2)CCN(C(=O)[C@@H]2C[C@@H](O)C3(CCC3)CN2)CC1', '=', 1.01),
  ('CC(C)C1(c2nc(C3CCC(F)(F)CC3)no2)CCN(C(=O)[C@@H]2C[C@@H](O)C3(CCC3)CN2)CC1', '=', 0.34),
  ('CC(C)C1(c2noc(C3CCC(F)(F)CC3)n2)CCN(C(=O)[C@@H]2CC[C@@]3(CCO3)CN2)CC1', '=', 1.06),
  ('O=C(c1nc(C2(C(F)(F)F)CCN(C(=O)[C@@H]3C[C@@H](O)C4(CCC4)CN3)CC2)no1)N1CCC(F)(F)CC1', '=', 4),
  ('O=C([C@@H]1C[C@@H](O)C2(CCC2)CN1)N1CCC(c2noc(C3CCOCC3)n2)(C(F)(F)F)CC1', '=', 1.75),
  ('CC(C)C1(c2noc(C34CC(C3)C4)n2)CCN(C(=O)[C@@H]2C[C@@H](O)C3(CCC3)CN2)CC1', '=', 0.31);
